Assay: Selectivity index, ratio of CC50 for african green monkey Vero cells to EC50 for Trypanosoma brucei gambiense ELIANE
Format: toxicity, cell-based
Details: read-out: Ratio CC50/EC50
reportedProperty: selectivity ratio
Response field accepts a number only; no unit should be typed.

// query Looking for the measured selectivity ratio of CCCCCCCCCCCCCCC(O)CN1CCN(C)CC1 (racemic) , can you help?
// result 28.8

// query Next entry: CCCCCCCCCCCCCCC(O)CNC(C)C (racemic)
// result 35.8

// query Next entry: CCCCCCCCCCCCCCCCC(CO)NCC (racemic)
// result 35.9

###

Experiment: Selectivity index, ratio of CC50 for african green monkey Vero cells to EC50 for Trypanosoma brucei rhodesiense EATRO3
Format: toxicity, cell-based
Conditions: read-out: Ratio CC50/EC50
Assignment: determine reported selectivity ratio for the given compounds.

// query Looking for the measured selectivity ratio of CCCCCCCCCCCCCCC(CN)NC(=O)OC(C)(C)C (racemic) , can you help?
// result 17

// query Next entry: CCCCCCCCCCCCCCC(O)CN1CCN(C)CC1 (racemic)
// result 23.7

// query Next entry: CCCCCCCCCCCCCCC(O)CN(CC)CC (racemic)
// result 19.9

// query Next entry: CCCCCCCCCCCCCCC(CO)NCC (racemic)
// result 39.1

// query Next entry: CCCCCCCCCCCCCCCCC(CO)NCC (racemic)
// result 27.7

// query Next entry: CCCCCCCCCCCCCCC(CNCC)NC(=O)OC(C)(C)C (racemic)
// result 38.8

// query Next entry: CCCCCCCCCCCCCCC(O)CNC(C)C (racemic)
// result 27.1
